Hey, just so you know, these numbers are from patent US20250195685A1.

As shown below, each of these binders has a reported EC50 value.
Target: T1, human CD8 on cells (CD8-overexpressing HEK293T cells, SupT1, HPB-ALL, human T cells, transfected HEK293 of … (human, UniProt P01732 22-235))
T1 construct: whole, on cells; also called cell surface CD8
T1 sequence (P01732 22-235): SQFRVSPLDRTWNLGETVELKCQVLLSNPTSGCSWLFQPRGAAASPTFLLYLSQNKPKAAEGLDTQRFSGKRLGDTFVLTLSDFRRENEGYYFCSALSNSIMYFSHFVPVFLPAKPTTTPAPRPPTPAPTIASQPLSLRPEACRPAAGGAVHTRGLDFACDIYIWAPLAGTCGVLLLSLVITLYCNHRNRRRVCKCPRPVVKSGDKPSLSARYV
Experiment: flow cytometry on CD8-overexpressing HEK293T cells, non-linear fit of normalized gMFI
Supply the numeric figure in nM, leaving out any unit text.

Given the entry CBD1038-hIgG1-LALAPA (antibody, V domains shown, also called h1017-H4/L3 whole antibody) VH: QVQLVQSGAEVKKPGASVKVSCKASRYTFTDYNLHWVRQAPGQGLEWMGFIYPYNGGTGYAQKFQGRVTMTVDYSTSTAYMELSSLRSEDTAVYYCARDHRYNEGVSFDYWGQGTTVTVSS VL: DIQLTQSPSSLSASVGDRATITCRASESVDGFGNSFMNWYQQKPGKAPKLLIYLASNLESGVPSRFSGSGSRTDFTLTISSVQPEDFATYYCQQNNEDPYTFGQGTKLEIKR , report its measured EC50.
2.57

// lookup EC50 for CBD1032 whole antibody, Fc-silenced human IgG1 (LALAPA) (antibody, V domains shown) VH: QVQLVQSGAEVKKPGASVKVSCKASRYTFTDYNLHWVRQAPGQGLEWMGFIYPYNGGTGYAQKFQGRVTMTRDTSTSTVYMELSSLRSEDTAVYYCARDHRYNEGVSFDYWGQGTTVTVSS VL: DIQMTQSPSSLSASVGDRVTITCRASESVDGFGNSFMNWYQQKPGKAPKLLIYLASNLESGVPSRFSGSGSGTDFTLTISSLQPEDFATYYCQQNNEDPYTFGQGTKLEIKR
2.35
